Entries annotated with measured inhibition
Target: MAP/microtubule affinity-regulating kinase 3 (Homo sapiens) (UniProt P27448);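 further: reported values are averaged percent inhibition of MARK3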
Sequence (P27448 whole entry, looked up): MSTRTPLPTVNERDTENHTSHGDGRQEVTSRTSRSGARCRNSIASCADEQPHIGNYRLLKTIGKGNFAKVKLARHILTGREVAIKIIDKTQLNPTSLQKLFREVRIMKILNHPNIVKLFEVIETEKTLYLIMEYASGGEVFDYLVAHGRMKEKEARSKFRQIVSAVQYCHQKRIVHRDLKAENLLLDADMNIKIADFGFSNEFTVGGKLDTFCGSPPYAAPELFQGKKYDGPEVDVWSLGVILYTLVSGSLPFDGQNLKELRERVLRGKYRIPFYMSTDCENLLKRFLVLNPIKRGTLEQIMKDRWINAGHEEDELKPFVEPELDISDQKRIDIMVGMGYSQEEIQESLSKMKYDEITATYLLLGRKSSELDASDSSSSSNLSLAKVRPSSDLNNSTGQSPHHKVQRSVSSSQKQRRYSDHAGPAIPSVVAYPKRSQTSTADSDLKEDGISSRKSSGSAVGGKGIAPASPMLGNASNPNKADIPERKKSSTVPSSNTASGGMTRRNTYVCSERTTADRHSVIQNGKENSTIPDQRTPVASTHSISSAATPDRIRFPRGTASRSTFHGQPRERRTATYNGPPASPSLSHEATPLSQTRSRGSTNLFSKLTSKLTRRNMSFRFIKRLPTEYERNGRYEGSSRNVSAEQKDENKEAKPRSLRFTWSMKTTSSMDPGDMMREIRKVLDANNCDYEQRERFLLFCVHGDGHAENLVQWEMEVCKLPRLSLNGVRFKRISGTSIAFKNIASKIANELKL
Conditions: at 1 µM

smiles	unit-abbreviation	inhibition
CS(=O)(=O)Nc1ccc(N/C=C2\C(=O)Nc3ccccc32)cc1	%	16.1
COc1ccccc1Nc1ncc(-c2ccccc2)o1	%	4.87
CCn1c(-c2nonc2N)nc2c(C#CC(C)(C)O)nc(OC[C@@H](N)c3ccccc3)cc21	%	28.1
CCc1cccc(NC(=O)Nc2ccc(Oc3ccc4nc(NC(=O)OC)[nH]c4c3)cc2)c1	%	3.47
c1cnn2ncc(-c3ccnc(Nc4ccc5c(c4)OCCO5)n3)c2c1	%	24.8
[O-][S+]1CCN(Cc2ccc(-c3ccc4ncnc(Nc5ccc(OCc6ccccc6)c(F)c5)c4c3)o2)CC1	%	1.39
Nc1ncnc2occ(-c3ccc(NC(=O)Nc4cc(C(F)(F)F)cc(C(F)(F)F)c4)cc3)c12	%	2.35
CN(C)c1cc2c(Nc3ccc4nc(Cc5ccccc5)[nH]c4c3)ncnc2cn1	%	5
Cn1cc(C=C2C(=O)Nc3cccnc32)c2ccccc21	%	7.16
CCn1c(-c2nonc2N)nc2c(N3CCCC3)nccc21	%	-0.19

---

Biological target: Protein kinase C iota type (Homo sapiens);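 further: reported figures are mean inhibition values from the GSK PKIS screen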
Sequence (whole entry): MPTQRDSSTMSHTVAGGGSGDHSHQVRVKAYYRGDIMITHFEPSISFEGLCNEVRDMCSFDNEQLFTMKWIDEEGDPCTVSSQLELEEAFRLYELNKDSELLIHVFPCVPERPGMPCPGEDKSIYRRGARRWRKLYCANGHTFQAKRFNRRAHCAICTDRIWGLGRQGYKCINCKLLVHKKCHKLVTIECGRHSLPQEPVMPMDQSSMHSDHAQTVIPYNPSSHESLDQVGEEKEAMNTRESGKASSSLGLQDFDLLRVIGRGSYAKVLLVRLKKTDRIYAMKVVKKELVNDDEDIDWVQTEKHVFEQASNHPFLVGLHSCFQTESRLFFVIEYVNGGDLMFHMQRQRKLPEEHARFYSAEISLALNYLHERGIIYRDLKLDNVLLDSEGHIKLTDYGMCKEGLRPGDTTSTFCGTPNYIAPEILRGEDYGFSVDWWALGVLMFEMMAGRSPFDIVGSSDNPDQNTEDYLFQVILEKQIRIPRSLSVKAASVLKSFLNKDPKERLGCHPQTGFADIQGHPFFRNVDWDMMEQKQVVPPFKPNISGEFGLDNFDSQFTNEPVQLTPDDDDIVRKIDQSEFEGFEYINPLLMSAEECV
Details: at 1 µM

molecule	unit-abbreviation	inhibition
Cn1cc(C=C2C(=O)Nc3cccnc32)c2ccccc21	%	1.58
O=C1NC(=O)C(c2ccccc2Cl)=C1Nc1cccc(O)c1	%	3.13
CNC(=O)c1cncc(/C=C/c2c(Cl)cccc2Cl)c1	%	0.96
CCn1c(-c2nonc2N)nc2c(N3CCCC3)nccc21	%	-0.25
NCc1ccc(-c2nc(-c3ccc(Cl)c(O)c3)c(-c3ccncc3)[nH]2)cc1	%	-0.02
O=C1Nc2ccc(C(=O)c3ccco3)cc2C1=Cc1cc(Cl)c(O)c(Cl)c1	%	-0.01
Nc1ncnc2occ(-c3ccc(NC(=O)Nc4cccc(C(F)(F)F)c4)cc3)c12	%	3.34
CC1=C(C(=O)Nc2ccc3[nH]ncc3c2)C(c2ccc3ccccc3c2)CC(=O)N1 (stereo unspecified)	%	0.77
COc1ccc(-c2coc3ncnc(N)c23)cc1	%	3.36
CC(=O)Nc1cccc(C#Cc2cncnc2Nc2ccc(OCc3cccc(F)c3)c(Cl)c2)n1	%	-0.05
N#Cc1c(NC(=O)c2cccc3ccccc23)sc2c1CCCC2	%	2.38
CS(=O)(=O)CCN(CC#N)Cc1ccc(-c2ccc3ncnc(Nc4ccc(OCc5cccc(F)c5)c(Cl)c4)c3c2)o1	%	0.81
COc1cc2ncn(-c3cc(OCc4ccccc4Cl)c(C(N)=O)s3)c2cc1OC	%	0.82
c1cnn2ncc(-c3ccnc(Nc4ccc5c(c4)OCCO5)n3)c2c1	%	1.82
CCn1c(-c2nonc2N)nc2c(C#CC(C)(C)O)nc(OC[C@@H](N)c3ccccc3)cc21	%	0.8
O=C1NC(=O)C(c2cccc(Cl)c2)=C1Nc1ccc(O)c(Cl)c1	%	0.5
Cc1cc(O)cc(C)c1/C=C/c1cncc(-c2nn[nH]n2)c1	%	2.11
COc1cc2c(cc1Nc1nc(N3CCc4ccccc43)c3cc[nH]c3n1)N(C(=O)CN(C)C)CC2	%	3.35
CS(=O)(=O)CCNCc1ccc(-c2ccc3ncnc(Nc4ccc(OCc5ccccc5)c(Cl)c4)c3c2)o1	%	1.11
COc1ccc(-c2nn3ncccc3c2-c2ccnc(Nc3ccc(Cl)c(C(F)(F)F)c3)n2)cc1	%	-1.6
CC1=C(C(=O)Nc2ccc3[nH]ncc3c2)C(c2ccc(Cl)c(Cl)c2)CC(=O)N1 (stereo unspecified)	%	-0.03

---

Biological target: Glycogen synthase kinase-3 beta (Homo sapiens) (UniProt P49841);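 further: values are mean percent inhibition of GSK3B activity, from the GSK Published Kinase Inhibitor Set (PKIS) screening dataset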
Sequence (P49841 whole entry, looked up): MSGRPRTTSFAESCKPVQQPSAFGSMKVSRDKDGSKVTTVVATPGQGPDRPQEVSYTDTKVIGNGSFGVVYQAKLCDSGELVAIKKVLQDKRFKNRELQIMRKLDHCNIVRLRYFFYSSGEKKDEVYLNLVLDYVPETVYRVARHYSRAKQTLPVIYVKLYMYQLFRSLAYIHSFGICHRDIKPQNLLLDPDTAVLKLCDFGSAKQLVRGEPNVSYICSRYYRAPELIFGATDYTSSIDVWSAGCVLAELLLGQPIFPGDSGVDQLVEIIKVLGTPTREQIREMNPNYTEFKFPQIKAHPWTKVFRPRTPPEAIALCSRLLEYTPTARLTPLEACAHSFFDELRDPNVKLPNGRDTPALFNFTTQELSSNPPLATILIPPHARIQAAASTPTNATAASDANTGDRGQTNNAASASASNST
Details: at 0.1 µM
measurement-type: inhibition

smiles	readout-value
N#Cc1c(NC(=O)c2cccc3ccccc23)sc2c1CCCC2	3.72%
CCCN1CCC(Oc2cc(Nc3nc(Nc4cccc(F)c4C(N)=O)c4cc[nH]c4n3)c(OC)cc2Cl)CC1	3.22%
CS(=O)(=O)CCNCc1ccc(-c2ccc3ncnc(Nc4ccc(OCc5cccc(F)c5)c(C(F)(F)F)c4)c3c2)o1	0.25%
CCc1cccc(NC(=O)Nc2ccc(Oc3ccc4nc(NC(=O)OC)[nH]c4c3)cc2)c1	1.88%
CN(C)c1cc2c(Nc3ccc4nc(Cc5ccccc5)[nH]c4c3)ncnc2cn1	1.6%
COc1cccc(-n2ncc3c(N/N=C/c4cccc(F)c4)ncnc32)c1	44.7%
Cc1cccc(-c2n[nH]cc2-c2ccc3ncccc3n2)n1	-0.14%
COc1ccc(COc2ccc(Cc3cnc(N)nc3N)cc2OC)cc1	0.96%
CCn1c(-c2nonc2N)nc2ccncc21	0.08%
Cc1nnc(-c2ccc(C)c(-c3ccc(C(=O)Nc4cccc(C#N)c4)cc3)c2)o1	2.45%

---

Molecular target: Tyrosine-protein kinase Tec (Homo sapiens);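 further: each value is the mean of the inhibition measurements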
Conditions: at 1 µM
measurement-type: inhibition (%)

compound	measured-on	measurement-type	unit-abbreviation	readout-value
Fc1cccc(COc2ccc(Nc3ncnc4cc(-c5ccc[nH]5)sc34)cc2Cl)c1	Tyrosine-protein kinase Tec (Homo sapiens)	inhibition	%	3.69
CC1=C(C(=O)Nc2ccc3[nH]ncc3c2)C(c2ccc(Cl)c(Cl)c2)CC(=O)N1 (stereo unspecified)	Tyrosine-protein kinase Tec (Homo sapiens)	inhibition	%	6.35
COc1cc(C=NNc2ncnc3c2cnn3-c2ccccc2)ccc1O	Tyrosine-protein kinase Tec (Homo sapiens)	inhibition	%	12.9
COc1cc2ncn(-c3cc(O[C@@H](C)c4ccccc4Cl)c(C(N)=O)s3)c2cc1OC	Tyrosine-protein kinase Tec (Homo sapiens)	inhibition	%	7.65
COc1cc2ncn(-c3cc(OCc4ccccc4Cl)c(C(N)=O)s3)c2cc1OC	Tyrosine-protein kinase Tec (Homo sapiens)	inhibition	%	7.65
N#Cc1c(NC(=O)c2cccc3ccccc23)sc2c1CCCC2	Tyrosine-protein kinase Tec (Homo sapiens)	inhibition	%	3.43
COC(=O)Nc1nc2cc(Oc3ccc(NC(=O)Nc4cccc(C(=O)O)c4)cc3)ccc2[nH]1	Tyrosine-protein kinase Tec (Homo sapiens)	inhibition	%	0.87
COc1ccccc1Nc1ncc(-c2ccccc2)o1	Tyrosine-protein kinase Tec (Homo sapiens)	inhibition	%	7.28
COc1ccc(-c2ccncc2)cc1C(N)=O	Tyrosine-protein kinase Tec (Homo sapiens)	inhibition	%	5.31
NC(=O)c1cccc(Nc2nccc(Nc3cccc4[nH]ncc34)n2)c1	Tyrosine-protein kinase Tec (Homo sapiens)	inhibition	%	62.5
Cc1nn(C)c2cc(N(C)c3ccnc(Nc4cccc(S(N)(=O)=O)c4)n3)ccc12	Tyrosine-protein kinase Tec (Homo sapiens)	inhibition	%	67.9
NS(=O)(=O)c1cccc(-c2ccc3c(NC(=O)C4CC4)n[nH]c3c2)c1	Tyrosine-protein kinase Tec (Homo sapiens)	inhibition	%	-2.6
COc1ccc(COc2ccc(Cc3cnc(N)nc3N)cc2OC)cc1	Tyrosine-protein kinase Tec (Homo sapiens)	inhibition	%	2.91
CS(=O)(=O)CCNCc1nc(-c2ccc3ncnc(Nc4ccc(F)c(Cl)c4)c3c2)cs1	Tyrosine-protein kinase Tec (Homo sapiens)	inhibition	%	9.13
CCCN1CCC(Oc2cc(Nc3nc(Nc4cccc(F)c4C(N)=O)c4cc[nH]c4n3)c(OC)cc2Cl)CC1	Tyrosine-protein kinase Tec (Homo sapiens)	inhibition	%	3.16
CCn1c(-c2nonc2N)nc2c(C#CC(C)(C)O)nc(OC[C@@H](N)c3ccccc3)cc21	Tyrosine-protein kinase Tec (Homo sapiens)	inhibition	%	6.92
CNC(=O)c1cncc(/C=C/c2c(Cl)cccc2Cl)c1	Tyrosine-protein kinase Tec (Homo sapiens)	inhibition	%	23.4
Fc1cccc(COc2ccc(Nc3ncnc4sc(-c5cccs5)cc34)cc2Cl)c1	Tyrosine-protein kinase Tec (Homo sapiens)	inhibition	%	1.47
COc1cccc(-n2ncc3c(N/N=C/c4cccc(F)c4)ncnc32)c1	Tyrosine-protein kinase Tec (Homo sapiens)	inhibition	%	2.09
[O-][S+]1CCN(Cc2ccc(-c3ccc4ncnc(Nc5ccc(OCc6ccccc6)c(F)c5)c4c3)o2)CC1	Tyrosine-protein kinase Tec (Homo sapiens)	inhibition	%	4.7
c1cnn2ncc(-c3ccnc(Nc4ccc5c(c4)OCCO5)n3)c2c1	Tyrosine-protein kinase Tec (Homo sapiens)	inhibition	%	19.8
